Reported log10 Ki values follow for various compounds
# Measurement target: cloned human P2Y1 receptors (Homo sapiens (Human))
# Sequence (P47900 whole entry): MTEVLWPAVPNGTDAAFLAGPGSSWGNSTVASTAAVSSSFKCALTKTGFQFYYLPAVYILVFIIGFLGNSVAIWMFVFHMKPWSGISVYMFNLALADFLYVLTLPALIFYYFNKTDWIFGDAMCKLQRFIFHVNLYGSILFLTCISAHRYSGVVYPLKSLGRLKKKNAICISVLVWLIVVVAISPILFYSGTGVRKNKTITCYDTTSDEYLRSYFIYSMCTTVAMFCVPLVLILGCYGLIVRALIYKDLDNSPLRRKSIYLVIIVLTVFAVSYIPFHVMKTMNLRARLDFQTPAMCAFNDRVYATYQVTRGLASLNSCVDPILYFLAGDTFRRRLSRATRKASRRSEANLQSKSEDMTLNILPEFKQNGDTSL
# Test summary: Binding Assay B: Scintillation Proximity Assay (SPA) for P2Y1 binding
# Test parameters: SPA, [33P] 2MeS-ADP displacement; read-out: P2Y1 Ki (nM) using binding assay B
Counter-ions that a name gives are not always drawn.
The common logarithm of Ki in nM is what is listed.

Reference set (8 entries):
CC(C)(C)CN1CCC2(CC1)CN(c1ccccc1NC(=O)Nc1nc3ccc(OC(F)(F)F)cc3s1)c1c(O)ccc(Cl)c12 [Example 52, TFA]: 0.96
CC(C)(C)CN1CCC2(CC1)CN(c1ccccc1NC(=O)Nc1ccc(C(C)(C)C)cc1)c1c(O)cccc12: 0.92
CC(C)(C)CN1CCC2(CC1)CN(c1ccccc1NC(=O)Nc1ccc(C(C)(C)C)cc1)c1c(O)ccc(C#N)c12 [Example 82, trifluoroacetic acid salt]: 1.39
CC(C)CN1CCC2(CC1)CN(c1ccccc1NC(=O)Nc1nc3ccc(Cl)cc3s1)c1c(O)ccc(C#N)c12: 1.16
CC(C)(C)CN1CCC2(CC1)CN(c1ccccc1NC(=O)Nc1ccc(OC(F)(F)F)cc1)c1c(O)ccc(Cl)c12: 0.86
CC(C)(C)CN1CCC2(CC1)CN(c1ccccc1NC(=O)Nc1ccc(OC(F)(F)F)cc1)c1c(O)ccc(F)c12: 0.64
CC(C)(C)CN1CCC2(CC1)CN(c1ccccc1NC(=O)Nc1nc3ccc(F)cc3s1)c1c(O)cc(F)c(-c3ccc(Cl)cc3)c12: 1.75
CC(C)(C)CN1CCC2(CC1)CN(c1ccccc1NC(=O)Nc1csc(Cl)n1)c1c(O)ccc(-c3nc4ccc(F)cc4s3)c12: 0.75

stdin: Sample "CC(C)(C)CN1CCC2(CC1)CN(c1ncccc1NC(=O)Nc1nc3ccc(F)cc3s1)c1c(O)ccc(Cl)c12" — what was its log10 Ki?
stdout: 1.41

stdin: Sample "CC(C)CN1CCC2(CC1)CN(c1ccccc1NC(=O)Nc1ccc(OC(F)(F)F)cc1)c1c(O)ccc(C(F)(F)F)c12" — what was its log10 Ki?
stdout: 1.03

stdin: Sample "CC(C)(C)CN1CCC2(CC1)CN(c1ccccc1NC(=O)Nc1nc3ccc(F)nc3s1)c1c(O)ccc(Cl)c12" — what was its log10 Ki?
stdout: 0.81

stdin: Sample "CC(C)CN1CCC(c2ccc(NC(=O)Nc3ccccc3N3CC4(CCN(CC(C)(C)C)CC4)c4c(Cl)c(F)cc(O)c43)cc2)CC1" — what was its log10 Ki?
stdout: 1.10

stdin: Sample "CC(C)(C)CN1CCC2(CC1)CN(c1ccccc1NC(=O)Nc1nc3ccc(F)cc3s1)c1c(O)cc(F)c(F)c12" — what was its log10 Ki?
stdout: 1.17

* * *

# Measurement target: UniProt P47900
# Test summary: Binding Assay B: Scintillation Proximity Assay (SPA) for P2Y1 binding
# Test parameters: SPA, [33P] 2MeS-ADP displacement; read-out: P2Y1 Ki (nM) using binding assay B
Where a name gives a salt, the structure may show the parent alone.
I'd appreciate it if you could label each record using Ki and these ranges: b0: < 6 nM; b1: ≥ 6 nM and < 9 nM; b2: ≥ 9 nM

CC(C)(C)CN1CCC2(CC1)CN(c1ccccc1NC(=O)Nc1ccc(C(F)(F)F)nc1)c1c(O)ccc(C(F)(F)F)c12: b1
CC(C)(C)CN1CCC2(CC1)CN(c1ccccc1NC(=O)Nc1ccc(OC(F)(F)F)cc1)c1c(O)ccc(-c3nc4cccc(Cl)c4s3)c12: b2
CCN(CC)S(=O)(=O)c1ccc(O)c2c1C1(CCN(CC(C)(C)C)CC1)CN2c1ccccc1NC(=O)Nc1ccc(OC(F)(F)F)cc1 [Example 91, trifluoroacetic acid salt]: b0
CC(C)(C)CN1CCC2(CC1)CN(c1ccccc1NC(=O)Nc1nc3ccc(Cl)nc3s1)c1c(O)cc(F)c(-c3ccc(Cl)cc3)c12: b2
CC(C)CN1CCC2(CC1)CN(c1ccccc1NC(=O)Nc1ccc(C(F)(F)F)cc1)c1c(O)ccc(Cl)c12: b1
COc1ccc2nc(-c3ccc(O)c4c3C3(CCN(CC(C)(C)C)CC3)CN4c3ccccc3NC(=O)Nc3csc(C(F)(F)F)n3)sc2c1: b1

stdin: Class? Entry: "COc1ccc2nc(-c3ccc(O)c4c3C3(CCN(CC(C)(C)C)CC3)CN4c3ccccc3NC(=O)Nc3csc(Cl)n3)sc2c1"
stdout: b1

stdin: Class? Entry: "CC(C)(C)CN1CCC2(CC1)CN(c1ccccc1NC(=O)Nc1nc3ccc(F)nc3s1)c1c(O)ccc(F)c12"
stdout: b1

stdin: Class? Entry: "CC(C)(C)CN1CCC2(CC1)CN(c1ccccc1NC(=O)Nc1ccc(C(F)(F)F)cc1)c1c(O)ccc(C(F)(F)F)c12"
stdout: b0

stdin: Class? Entry: "Cc1ccc2nc(NC(=O)Nc3ccccc3N3CC4(CCN(CC(C)(C)C)CC4)c4c(Cl)c(F)cc(O)c43)sc2c1"
stdout: b2

stdin: Class? Entry: CC(C)(C)CN1CCC2(CC1)CN(c1ccccc1NC(=O)Nc1nc3ccc(F)cc3s1)c1c(O)ccc(C#N)c12 [Example 81, trifluoroacetic acid salt]
stdout: b0

stdin: Class? Entry: "CC(C)CN1CCC2(CC1)CN(c1ccccc1NC(=O)Nc1nc3ccc(Cl)cc3s1)c1c(O)ccc(C(F)(F)F)c12"
stdout: b2

stdin: Class? Entry: "CC(C)(C)CN1CCC2(CC1)CN(c1ccccc1NC(=O)Nc1csc(Cl)n1)c1c(O)ccc(C(F)(F)F)c12"
stdout: b1
